tgt: STE20-like serine/threonine-protein kinase (Homo sapiens) (UniProt Q9H2G2)
Sequence (Q9H2G2 whole entry, looked up, the tested form may be a part): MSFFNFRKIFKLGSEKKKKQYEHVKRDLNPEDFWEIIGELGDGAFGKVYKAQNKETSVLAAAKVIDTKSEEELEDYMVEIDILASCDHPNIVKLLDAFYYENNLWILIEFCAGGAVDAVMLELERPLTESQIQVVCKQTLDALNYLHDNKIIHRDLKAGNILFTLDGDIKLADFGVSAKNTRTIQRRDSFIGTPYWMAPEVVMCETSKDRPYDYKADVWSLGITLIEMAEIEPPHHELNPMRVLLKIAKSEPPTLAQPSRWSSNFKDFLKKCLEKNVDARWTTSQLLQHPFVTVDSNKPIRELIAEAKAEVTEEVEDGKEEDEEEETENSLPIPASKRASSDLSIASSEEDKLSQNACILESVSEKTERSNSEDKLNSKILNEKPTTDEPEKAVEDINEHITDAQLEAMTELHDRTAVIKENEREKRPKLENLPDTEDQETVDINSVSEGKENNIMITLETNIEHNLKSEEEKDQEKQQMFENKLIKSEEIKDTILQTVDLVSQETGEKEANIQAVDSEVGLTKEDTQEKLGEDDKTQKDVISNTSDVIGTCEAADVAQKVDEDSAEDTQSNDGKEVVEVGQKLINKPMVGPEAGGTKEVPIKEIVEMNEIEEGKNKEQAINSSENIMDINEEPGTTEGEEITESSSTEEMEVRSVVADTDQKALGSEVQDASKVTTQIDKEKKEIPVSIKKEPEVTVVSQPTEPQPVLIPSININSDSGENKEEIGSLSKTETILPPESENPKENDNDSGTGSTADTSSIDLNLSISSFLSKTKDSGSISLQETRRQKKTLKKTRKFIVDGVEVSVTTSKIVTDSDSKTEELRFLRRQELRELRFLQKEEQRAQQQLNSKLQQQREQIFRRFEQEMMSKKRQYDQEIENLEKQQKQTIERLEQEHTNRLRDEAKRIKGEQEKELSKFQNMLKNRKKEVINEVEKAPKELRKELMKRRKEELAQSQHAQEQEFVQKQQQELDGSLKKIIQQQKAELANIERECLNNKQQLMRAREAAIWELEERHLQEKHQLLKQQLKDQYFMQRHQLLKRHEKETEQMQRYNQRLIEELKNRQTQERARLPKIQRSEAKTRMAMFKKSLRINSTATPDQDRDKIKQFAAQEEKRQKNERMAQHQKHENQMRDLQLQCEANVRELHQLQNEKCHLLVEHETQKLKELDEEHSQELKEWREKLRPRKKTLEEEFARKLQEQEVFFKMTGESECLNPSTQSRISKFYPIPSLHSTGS
protocol text: Inhibition of T7 bacteriophage fused human SLK at 10 uM by KINOMEscan analysis relative to control
Exercise: state measured inhibition for each of the compounds provided.

Indicate its recorded inhibition; the compound in question is `CCOc1cc(C(=O)N2CCC(N3CCN(C)CC3)CC2)ccc1Nc1ncc2c(n1)N(C1CCCC1)c1ccccc1C(=O)N2C`
100%

Answer with reported inhibition of `COc1cc(N2CCC(N3CCN(C)CC3)CC2)ccc1Nc1ncc2c(n1)N(C)c1ccccc1C(=O)N2C`
100%

Please indicate inhibition recorded for `COc1cc(C(=O)N2CCC(N3CCN(C)CC3)CC2)ccc1Nc1ncc2c(n1)N(C1CCCC1)c1ccccc1C(=O)N2C`
100%

Please report inhibition for the following compound: `COc1cc(C(=O)N2CCC(N3CCN(C)CC3)CC2)ccc1Nc1ncc2c(n1)N1CCc3cccc(c31)C(=O)N2C`
49%

###

tgt: Mitogen-activated protein kinase 7 (Homo sapiens, UniProt Q13164)
Sequence (Q13164 whole entry): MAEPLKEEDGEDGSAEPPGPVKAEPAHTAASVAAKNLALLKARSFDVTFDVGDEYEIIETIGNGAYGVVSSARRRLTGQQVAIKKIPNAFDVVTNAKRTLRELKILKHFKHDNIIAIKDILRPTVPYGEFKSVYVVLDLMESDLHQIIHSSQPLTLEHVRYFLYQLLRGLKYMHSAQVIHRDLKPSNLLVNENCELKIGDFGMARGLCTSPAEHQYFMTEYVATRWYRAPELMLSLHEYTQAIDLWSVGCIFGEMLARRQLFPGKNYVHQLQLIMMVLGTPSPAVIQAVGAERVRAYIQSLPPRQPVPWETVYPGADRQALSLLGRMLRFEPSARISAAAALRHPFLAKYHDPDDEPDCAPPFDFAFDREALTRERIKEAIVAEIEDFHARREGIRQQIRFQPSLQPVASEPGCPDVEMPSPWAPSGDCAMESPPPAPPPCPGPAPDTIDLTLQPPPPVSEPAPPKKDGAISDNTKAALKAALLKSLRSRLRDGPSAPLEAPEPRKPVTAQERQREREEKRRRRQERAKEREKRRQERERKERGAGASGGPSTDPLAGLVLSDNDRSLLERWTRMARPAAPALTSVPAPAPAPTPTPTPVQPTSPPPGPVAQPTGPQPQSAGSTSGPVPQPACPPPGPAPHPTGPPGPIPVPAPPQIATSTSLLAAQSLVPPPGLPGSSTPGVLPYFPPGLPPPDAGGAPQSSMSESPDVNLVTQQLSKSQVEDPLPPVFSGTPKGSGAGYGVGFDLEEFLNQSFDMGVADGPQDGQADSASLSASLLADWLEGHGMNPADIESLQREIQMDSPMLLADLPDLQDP
protocol text: Inhibition of GST-tagged ERK5 (unknown origin) expressed in baculovirus expression system incubated for 90 mins in presence of ATP by PKLight ATP Detection Reagent based analysis
quantity name: pIC50
Field pIC50 (float): negative decimal logarithm of the concentration in molar.

Tell me its pIC50 given `CN(C)Cc1cccc(N/C(=C2\C(=O)Nc3cc(C(N)=O)ccc32)c2ccccc2)c1` as the entry.
6.09

###

tgt: Dual specificity mitogen-activated protein kinase kinase 5 (Homo sapiens, UniProt Q13163)
Sequence (Q13163 whole entry): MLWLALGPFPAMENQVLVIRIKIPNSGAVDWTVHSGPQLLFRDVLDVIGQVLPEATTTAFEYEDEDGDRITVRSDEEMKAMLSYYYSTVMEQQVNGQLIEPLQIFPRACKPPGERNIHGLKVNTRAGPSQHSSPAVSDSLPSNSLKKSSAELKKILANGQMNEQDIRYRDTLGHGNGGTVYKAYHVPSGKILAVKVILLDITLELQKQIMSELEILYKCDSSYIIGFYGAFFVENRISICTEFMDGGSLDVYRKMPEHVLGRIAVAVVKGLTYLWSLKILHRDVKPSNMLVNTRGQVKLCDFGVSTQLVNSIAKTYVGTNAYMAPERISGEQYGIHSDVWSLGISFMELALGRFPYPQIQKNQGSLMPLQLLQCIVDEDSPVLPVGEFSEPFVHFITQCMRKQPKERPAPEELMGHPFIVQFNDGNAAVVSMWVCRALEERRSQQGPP
protocol text: Inhibition of GST-tagged MEK5 (unknown origin) expressed in baculovirus expression system incubated for 90 mins in presence of ATP by PKLight ATP Detection Reagent based analysis
quantity name: pIC50
Schema: pIC50 number; meaning minus log10 of the concentration expressed in molar units.

For Dual specificity mitogen-activated protein kinase kinase 5 (Homo sapiens, UniProt Q13163), give pIC50 of the listed compound: `CN(C)Cc1cccc(N/C(=C2\C(=O)Nc3cc(C(N)=O)ccc32)c2ccccc2)c1`
8.37
